- system_under_test: Jak2 (UniProt O60674)
- Sequence (O60674 whole entry, looked up): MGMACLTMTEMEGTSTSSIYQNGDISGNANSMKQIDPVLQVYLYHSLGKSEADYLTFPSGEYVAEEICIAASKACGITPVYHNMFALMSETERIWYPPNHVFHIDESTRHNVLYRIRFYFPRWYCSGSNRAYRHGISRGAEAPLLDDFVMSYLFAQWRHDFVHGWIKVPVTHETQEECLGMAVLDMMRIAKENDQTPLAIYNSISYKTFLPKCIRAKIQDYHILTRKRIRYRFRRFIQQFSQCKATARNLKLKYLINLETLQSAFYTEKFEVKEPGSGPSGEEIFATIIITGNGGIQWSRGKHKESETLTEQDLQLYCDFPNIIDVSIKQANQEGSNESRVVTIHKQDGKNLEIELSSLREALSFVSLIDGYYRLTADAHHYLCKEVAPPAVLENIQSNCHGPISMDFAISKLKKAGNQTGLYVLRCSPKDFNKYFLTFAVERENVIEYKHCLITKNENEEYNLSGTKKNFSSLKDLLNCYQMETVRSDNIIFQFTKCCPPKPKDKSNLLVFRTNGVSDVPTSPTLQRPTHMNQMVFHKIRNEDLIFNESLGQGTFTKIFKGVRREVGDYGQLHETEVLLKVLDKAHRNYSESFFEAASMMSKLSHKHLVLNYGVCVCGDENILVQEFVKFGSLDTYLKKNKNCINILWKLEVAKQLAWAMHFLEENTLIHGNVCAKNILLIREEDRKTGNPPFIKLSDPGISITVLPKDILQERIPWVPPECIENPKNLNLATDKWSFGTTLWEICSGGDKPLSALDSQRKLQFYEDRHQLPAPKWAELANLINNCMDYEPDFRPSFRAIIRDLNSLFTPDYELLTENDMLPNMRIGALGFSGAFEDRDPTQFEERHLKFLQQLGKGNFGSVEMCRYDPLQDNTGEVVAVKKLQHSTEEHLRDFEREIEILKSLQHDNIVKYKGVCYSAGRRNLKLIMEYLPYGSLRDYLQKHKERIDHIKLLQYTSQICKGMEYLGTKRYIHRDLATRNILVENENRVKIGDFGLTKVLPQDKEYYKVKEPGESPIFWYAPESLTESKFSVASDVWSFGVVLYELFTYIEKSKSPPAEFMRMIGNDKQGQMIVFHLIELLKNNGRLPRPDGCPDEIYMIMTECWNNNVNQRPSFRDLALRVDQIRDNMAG
- assay_remarks: phosphorylation enrichment, bacterial display (enrichment ratio); higher = better substrate or ligand; peptides without Tyr show the background
TRUE means recorded phosphorylation enrichment is 0.7 or above; FALSE means it is below 0.7.

Example entries and their recorded answers appear below.
| sequence_text | assigned_label |
| --- | --- |
| TTGGFYSFGGG [KRT24_Y120_A115T_YF] | FALSE |
| DNACQYMLTDR [MYH7_Y164_Y162C] | TRUE |
| FFLGAYDRFLP [SLC22A5_Y486_V481F_YF] | TRUE |

Does NTGDYYDLYGG [PTPN11_Y63] have a reported phosphorylation enrichment of at least 0.7?
TRUE

Is reported phosphorylation enrichment greater than or equal to 0.7 here: NQKGKYFNVER [ANAPC4_Y469_R465Q]
FALSE

Tell me whether phosphorylation enrichment is at least 0.7 here: GEFHVYRHLRW [PRKRIP1_Y82_R87W]
TRUE

* * *

- system_under_test: Jak2 (UniProt O60674)
- assay_remarks: phosphorylation enrichment, bacterial display (enrichment ratio); higher = better substrate or ligand; peptides without Tyr show the background
measured_metric: phosphorylation enrichment
Give bare numbers.

Known phosphorylation enrichment results, listed for orientation:
| sequence_text | phosphorylation enrichment |
| --- | --- |
| CTTFHYNFMCN [TP53_Y234_I232F_YF] | 0.866 |
| DDDPEYRKFLE [UPF3B_Y160] | 1.06 |
| GLCSFYETSKM [MAGED2_Y449_R446C_YF] | 1.34 |
| AAVDTYCRHNF [HLA-DRB1_Y107_YF] | 0.88 |
| RLGNQHVNVMN [SLC3A1_Y461_Y461H] | 1.09 |

Batch: phosphorylation enrichment for all items listed.
1. AHEALYLEADL [CENPF_Y1920_E1915A]
2. WSFNLYDINKD [KCNIP3_Y174_A170S]

1.05
1.12

Working through the 7 sequences below one at a time, give phosphorylation enrichment for each.
1. RRRLIYRCQVG [NR2E3_Y81]
2. EFNLMYDGTKE [IRF6_Y97]
3. CLGNQYVNVMN [SLC3A1_Y461_R456C]
4. CTTIHYNYMYN [TP53_Y234_C238Y]
5. LCHELYNTIRD [PBRM1_Y54_V49L]
6. RRLEPYGENFN [APOA4_Y310_V307L]
7. HNELFYEAAEH [VANGL1_Y345_E347A_YF]

1. 0.679
2. 1.03
3. 1
4. 0.91
5. 2.44
6. 0.681
7. 0.944

* * *

- system_under_test: c-Src SH2;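 also: peptide library displayed on the E. coli surface as eCPX fusions, selected cells deep-sequenced, score is each peptide's frequency after selection divided by its frequency in the input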
- assay_remarks: SH2 binding enrichment of the phosphorylated peptide, bacterial display (enrichment ratio); higher = better substrate or ligand; peptides without Tyr show the background
Lab note: anything with SH2 binding enrichment at or over 0.5 counts as yes; the rest go in no.

Solved entries:
| sequence_text | assigned_label |
| --- | --- |
| NKEPRYQEDPP [TJP2_Y479] | yes |
| RRGMPYGGCGD [TGM1_Y312_R315C] | no |
| PTQLPYDHKWK [KIT_Y578_E583K] | no |
| SHLEDYPFDAE [AKR1B10_Y310_N313D] | no |

Next item in the queue.
Identify whether the reported SH2 binding enrichment of the following sequence is 0.5 or greater: LDLSFYPTSSS [EMD_Y182_YF]
no

* * *

- system_under_test: EPHB1 (UniProt P54762)
- Sequence (P54762 whole entry, looked up): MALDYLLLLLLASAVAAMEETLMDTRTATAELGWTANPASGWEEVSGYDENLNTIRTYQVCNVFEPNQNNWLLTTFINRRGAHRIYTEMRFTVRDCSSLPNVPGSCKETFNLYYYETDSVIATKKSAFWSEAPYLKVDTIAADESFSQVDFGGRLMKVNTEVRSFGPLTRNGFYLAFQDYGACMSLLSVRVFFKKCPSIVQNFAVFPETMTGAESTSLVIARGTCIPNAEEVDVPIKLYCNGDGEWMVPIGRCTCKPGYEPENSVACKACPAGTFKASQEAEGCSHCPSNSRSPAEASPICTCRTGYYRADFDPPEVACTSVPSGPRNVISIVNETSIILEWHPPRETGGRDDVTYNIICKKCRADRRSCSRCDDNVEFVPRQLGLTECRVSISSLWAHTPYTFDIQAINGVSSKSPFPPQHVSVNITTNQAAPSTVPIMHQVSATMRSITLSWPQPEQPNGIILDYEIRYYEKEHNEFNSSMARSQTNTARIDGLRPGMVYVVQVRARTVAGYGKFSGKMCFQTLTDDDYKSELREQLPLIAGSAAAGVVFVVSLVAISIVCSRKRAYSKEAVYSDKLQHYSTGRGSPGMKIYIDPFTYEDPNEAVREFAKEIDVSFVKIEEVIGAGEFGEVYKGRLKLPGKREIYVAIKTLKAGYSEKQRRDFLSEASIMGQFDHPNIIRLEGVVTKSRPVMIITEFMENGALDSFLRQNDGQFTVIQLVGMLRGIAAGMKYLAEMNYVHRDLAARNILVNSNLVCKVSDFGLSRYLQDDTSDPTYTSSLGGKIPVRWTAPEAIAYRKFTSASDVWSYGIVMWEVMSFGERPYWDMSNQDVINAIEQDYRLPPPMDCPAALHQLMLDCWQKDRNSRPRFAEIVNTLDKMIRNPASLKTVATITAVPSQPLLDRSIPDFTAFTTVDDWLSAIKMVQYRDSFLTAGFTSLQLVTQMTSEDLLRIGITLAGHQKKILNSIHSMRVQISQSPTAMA
- assay_remarks: phosphorylation enrichment, bacterial display (enrichment ratio); higher = better substrate or ligand; peptides without Tyr show the background
measured_metric: phosphorylation enrichment
Numbers only.

| sequence_text | phosphorylation enrichment |
| --- | --- |
| PAIYTYDEYKK [COL8A2_Y648_T645I] | 3.61 |
| TTPGPHRSIFF [MPG_Y71_Y71H_YF] | 0.41 |
| CTTIHYNYMCD [TP53_Y234_N239D] | 0.647 |
| RLGNQHVNVMN [SLC3A1_Y461_Y461H] | 0.694 |
| DTLASYLDKVR [KRT12_Y139_R135T] | 0.403 |
| RHCSGYVLIAM [EFR3A_Y73_R70C] | 0.51 |
| LSQDVYEEDSY [RET_Y900_R897Q] | 0.966 |
| GEIQEYGAPLD [ABCC1_Y1508_S1512L] | 0.74 |
| AGAKTYKMSMA [CPS1_Y309] | 0.328 |
| EFISESCGEII [EZH2_Y641_Y641S] | 0.544 |

For each listed entry, give its phosphorylation enrichment.
1. NYCPGYNNFYN [USH2A_Y467_R464C]
2. IDDNQYAFLKA [HNF4A_Y286_E285Q_YF]
3. KPEKTYGLRKE [CEP43_Y267]
4. FVPAAYVKKLD [SPTAN1_Y1020]
5. SSREEYFIGGG [GYPC_Y126_K124E]
6. SFLFRYADDSF [RAB3C_Y50]

1: 0.888; 2: 0.494; 3: 0.433; 4: 0.43; 5: 0.457; 6: 0.545

I would be grateful if you could provide phosphorylation enrichment for each of the following entries.
1. LGKGSYAKVRS [TSSK2_Y23_K27R]
2. SVVVPHEPPEV [TP53_Y220_Y220H]
3. LSQAKYQIRYR [CRLF1_Y272_F268S]
4. SVTCTHSPALN [TP53_Y126_Y126H]

0.395
0.51
0.506
0.498

# per-item lookup of phosphorylation enrichment; items listed below
1. ASMAKYYASGI [ACADSB_Y372_E376G]
2. EKLQQYLAPGM [EPHB3_Y600_I601L]
3. WKEIEYEVVPD [CPS1_Y634_R638P]
4. EKEKKYMLPLD [DNM2_Y563]
5. GIVEDYRPPFY [ACVRL1_Y421]
6. TTKAKYKTPTY [PLD2_Y573]

1. 0.327
2. 0.408
3. 0.636
4. 0.526
5. 0.522
6. 0.328

Hey, can you go through the list below and give me phosphorylation enrichment for every item?
1. GGCQEYTGAPY [NAXD_Y85]
2. IDDNEYAYLKA [HNF4A_Y286]
3. GMSQAYSSSQR [DES_Y5]
4. EASGIYVKSVI [PATJ_Y396_I400V]
5. VDEVLYEDSST [MTHFS_Y197]
6. CTTIHSNYMCN [TP53_Y234_Y234S]
7. LAEMNYVHQDL [EPHB1_Y740_R743Q]

1: 0.636; 2: 0.507; 3: 0.379; 4: 0.543; 5: 0.666; 6: 0.542; 7: 1.37

* * *

- system_under_test: Hck (UniProt P08631)
- Sequence (P08631 whole entry, looked up): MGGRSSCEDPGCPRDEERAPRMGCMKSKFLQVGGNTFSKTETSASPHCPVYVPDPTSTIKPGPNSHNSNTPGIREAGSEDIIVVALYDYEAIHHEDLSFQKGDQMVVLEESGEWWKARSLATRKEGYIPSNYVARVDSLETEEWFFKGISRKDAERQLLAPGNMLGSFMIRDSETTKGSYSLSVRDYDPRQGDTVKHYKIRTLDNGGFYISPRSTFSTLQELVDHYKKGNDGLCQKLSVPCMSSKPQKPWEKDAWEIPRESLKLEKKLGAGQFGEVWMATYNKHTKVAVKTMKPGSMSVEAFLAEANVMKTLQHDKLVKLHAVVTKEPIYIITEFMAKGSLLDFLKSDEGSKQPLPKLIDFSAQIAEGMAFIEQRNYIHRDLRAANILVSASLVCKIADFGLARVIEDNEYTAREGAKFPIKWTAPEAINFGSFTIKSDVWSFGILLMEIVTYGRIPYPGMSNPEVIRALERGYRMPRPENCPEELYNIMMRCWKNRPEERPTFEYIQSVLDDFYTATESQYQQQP
- assay_remarks: phosphorylation enrichment, bacterial display (enrichment ratio); higher = better substrate or ligand; peptides without Tyr show the background
measured_metric: phosphorylation enrichment
One number for each entry.

Below are worked cases with known answers.
| sequence_text | system_under_test | phosphorylation enrichment |
| --- | --- | --- |
| ELPEKYSQNIF [PKP2_Y626_YF] | Hck (UniProt P08631) | 0.507 |
| IGCHAYGDQFR [IDH1_Y135_R132C_YF] | Hck (UniProt P08631) | 0.51 |

Batch request: phosphorylation enrichment per item, same order as input.
1. CTTIHYNYMCI [TP53_Y234_N239I]
2. GDFSRYDEGSG [RECQL5_Y484]

1. 0.494
2. 0.494

* * *

- system_under_test: Jak2 (UniProt O60674)
- assay_remarks: phosphorylation enrichment, bacterial display (enrichment ratio); higher = better substrate or ligand; peptides without Tyr show the background
So basically: phosphorylation enrichment at 0.8 or higher? That is 1. Lower than 0.8? That is -1.

Solved entries:
| sequence_text | assigned_label |
| --- | --- |
| HSLRDYKEALM [ADA2_Y337_H335R] | 1 |
| RMDGKYACSYT [FLNB_Y704_T703K] | -1 |
| LFLALYTGLVR [PIGB_Y402_H407R] | 1 |
| MSRDVYSIDYY [NTRK2_Y702_T704I] | 1 |
| PARLEYCENEK [IRS1_Y46_Y47C] | 1 |

Exam item: decide whether the reported phosphorylation enrichment for GFQPDYGQPAG [SYP_Y278_YF] is at least 0.8.
-1

Is the recorded value of phosphorylation enrichment equal to or greater than 0.8 for this sequence? DDPRTYQKFGF [OAS1_Y362_R361T_YF]
-1

Can SVTCTYSPDLN [TP53_Y126_A129D] be said to have phosphorylation enrichment at or above 0.8?
1

Check if phosphorylation enrichment >= 0.8 (inclusive). Item: RTEAQYRFIYM [PTPN11_Y511_Q506R]
1

Determine whether this sequence has phosphorylation enrichment no lower than 0.8: AKRKGYDMQVD [NEB_Y2770_R2773Q]
-1

phosphorylation enrichment >= 0.8 for RFLERYIYNPE [HLA-DPB1_Y57_R61P] ?
1

Tell me whether phosphorylation enrichment is at least 0.8 here: NYCPGYNNFYN [USH2A_Y467_R464C]
1

Could you please find out whether RMDGKYACSFT [FLNB_Y704_T703K_YF] has phosphorylation enrichment that meets 0.8 or exceeds it?
1

Tell me whether phosphorylation enrichment is at least 0.8 here: LRFEVYGGENE [STOX1_Y610_YF]
1

# bool: phosphorylation enrichment of LGNIVYSSLCG [BCOR_Y90_P85L] >= 0.8
1

Item LDLSFYPTSSS [EMD_Y182_YF] with phosphorylation enrichment of 0.8 or above?
1

Item TARREYMHSPS [CPOX_Y429_W427R] with phosphorylation enrichment of 0.8 or above?
-1

Dear colleague, could you confirm whether `TRTEAYAVSSF` has phosphorylation enrichment at or above 0.8?
-1

In plain terms: is recorded phosphorylation enrichment at least 0.8 for IYRASYYRRGD [LTK_Y676] ?
-1

Dear colleague, could you confirm whether TGDRPYVCPFD [YY1_Y383] has phosphorylation enrichment at or above 0.8?
-1

Every entry's value here was drawn from the supplement of paper PMC10065799.
